Biological target: humanized development candidate monoclonal antibody IgG4 (hIgG4)
Experiment: Gyrolab, mAb as capture, hIgG4 5000 ng/ml, against the blank
Measured S/B by item
# print the numeric value only

Below are worked cases with known answers.
binder="rabbit anti-human IgG monoclonal antibody clone 16F5 (antibody, V domains shown) VH: QQQLEESGGGLVKPGGTLTLTCKASGIDFSNYYYMCWVRQAPGKGLELIACIYTGSSGSTWYATWAKGRFTISKTSSTTVTLQMTSLTAADTATYFCARDRDVGSLYDSLDLWGQGTLVTVSP VL: AYDMTQTPASVEAAVGGTVTINCQASQSINNWLSWYQQKPGQRPKLLIYQASTLASGVSSRFKGSGSGTHFTLTISDLECADAATYYCQQGWSIDDIDNAFGGGTEVVVKG" experimental_value=98.6
binder="rabbit anti-human IgG monoclonal antibody clone 11G5 (antibody, V domains shown) VH: QSLEESGGDLVKPGASLTLTCTASGFSFSSSYYMCWVRQAPGKRLEWIACIYGGGLSNTYYAGWAKGRFTISKTSSTTVTLQMTSLTAADTATYFCARDATSGDYLNLWGPGTLVTVSS VL: AVVMTQTASPVSGAVGGTVTINCQASQSISASALSWYQQKPGQPPKLLIYAASTLESGVPSRFKGSGSGTQFTLTISGVQCDDAATYYCAYDGYRLSSADNIFGGGTEVVVKG" experimental_value=63.3
binder="rabbit anti-human IgG monoclonal antibody clone 9E6 (antibody, V domains shown) VH: QSLEESGGDLVKPGASLTLTCKASGFDFSSSYYMCWVRQAPGRLEWIACIYGGGLSNTYYAGWAKGRFTISKTSSTTVTLQMTSLTVADTATYFCARDAGTSGDYLNLWGPGTLVTVSS VL: AVVMTQTASPVSGAVGGTVTINCQASQSISSSYLSWYQQKPGQPPKLLIYGASTLASGVPSRFKGSGSGTQFTLTISGVQCDDAATYYCAYDAYRLSSPDNIFGGGTEVVVKG" experimental_value=113

Task item: Sample rabbit anti-human IgG monoclonal antibody clone 2C5 (antibody, V domains shown) VH: QEQLVESGGDLVKPGASLTLTCTASGFSFSSGYYMCWVRQAPGKGLEWIACIYGGALTNTYYATWAKGRFTISKTSSTTVTLQMTSLTAADTATYFCARDLGAAGDAYNLWGPGTLVTVSS VL: ASDMTQTPASVSAAVGGTVTIKCQASESIYSGLAWYQQKPGQPPKLLIFDASDLASGVPSRFKGSRSETEYTLTISDLECADAATYYCQCTDRNSITSYAFGGGTEVVVKG — what was its S/B?
Reply: 151
